- Assay Protocol: in vitro
- Test Conditions: human, Caco-2, pH 7.4, Recovery, B2A, individual experiments

Compound: Cc1ccc(NC(=O)c2ccc3c(c2)OCCO3)cc1NC(=O)c1ccc2nc(OCCN3CCCC3)ccc2c1 [Compound 1]
recovery [%]: 70

---

- Assay Protocol: Plasma stability
- Assay type: in vitro ADME
- Test Conditions: pooled plasma; human plasma, 60 min; read-out: Compound remaining (% of 0 min)

Compound: Cc1ccc(NC(=O)c2ccc3c(c2)OCCO3)cc1NC(=O)c1ccc2nc(OCCN3CCCC3)ccc2c1 [Compound 1]
remaining at 60 min, 1 µM: 97%

---

- Assay Protocol: in vitro
- Assay type: in vitro ADME
- Test Conditions: both sexes, human, microsomes, pH 7.4; n = 1, fraction unbound assumed 1; read-out: Microsome Clint, human (HLM)
Recorded Metric: microsomal CLint at 0.75 h, 1 µM (µL/min/mg)

Compound: Cc1ccc(NC(=O)c2ccc3c(c2)OCCO3)cc1NC(=O)c1ccc2nc(CN3CCN(C(C)C)CC3)ccc2c1 [Compound 16]
Value Measured: 43
--
Compound: Cc1ccc(NC(=O)c2ccc3c(c2)OCCO3)cc1NC(=O)c1ccc2nc(CN3CCCC3)ccc2c1 [Compound 11]
Value Measured: 23

---

- Assay Protocol: Plasma protein binding and blood-to-plasma ratio
- Test Conditions: BALB/c mouse; 90% CI

Chemical Structure: Cc1ccc(NC(=O)c2ccc3c(c2)OCCO3)cc1NC(=O)c1ccc2nc(CN3CCN(C(C)C)CC3)ccc2c1
Plasma, fup: 0.042 (0.071-0.024)
//
Chemical Structure: CCN1CCN(Cc2ccc3cc(C(=O)Nc4cc(NC(=O)c5ccc6c(c5)OCCO6)ccc4Cl)ccc3n2)CC1
Plasma, fup: 0.013 (0.015-0.011)
//
Chemical Structure: Cc1ccc(NC(=O)c2ccc3c(c2)OCCO3)cc1NC(=O)c1ccc2nc(OCCN3CCCCC3)ccc2c1
Plasma, fup: 0.022 (0.027-0.017)
